PROTOCOL_TEXT: T max was determined at 3 mg/kg po dose in rats
Format: ADME, organism-based
Set-up: dose 3 mg/kg, route oral
PROTOCOL_CONDITIONS: rat, in vivo
READOUT_TYPE: Tmax (h)
Answer format: numeric, h implied, no suffix.

Which Tmax reading was recorded for the compound C[S+]([O-])c1ccc(-c2cc(-c3ccncc3)c(-c3ccc(F)cc3)[nH]2)cc1 (stereo unspecified) ?
1

----------
PROTOCOL_TEXT: Pharmacokinetic parameter area under curve was determined at 10 mg/kg po dose in rats
Type: ADME, organism-based
Set-up: dose 10 mg/kg, route oral
PROTOCOL_CONDITIONS: rat, in vivo
READOUT_TYPE: AUC (µM·h)
Only the number, expressed in µM·h, is required.

COMPOUND	READOUT_TYPE	UNIT_OF_MEASURE	NUMERIC_READOUT
CS(=O)(=O)c1ccc(-c2cc(-c3ccncc3)c(-c3ccc(F)cc3)[nH]2)cc1	AUC	µM·h	95.7

Turning to the following compound.
GET /values?readout=AUC&item= C[S+]([O-])c1ccc(-c2cc(-c3ccncc3)c(-c3ccc(F)cc3)[nH]2)cc1 (configuration not stated)
16.7
